- Test system: NSCLC A549 lung cancer cells
- Test Description: XTT assay, cell proliferation after 72 hours incubation, IC50
- Type: cell-based
- Condition Label: read-out: Plus DMSO (Control), IC-50
Recorded Endpoint: IC50 (µM)
Please reply with the bare figure in µM and do not write the unit itself.

**Q:** Give IC50 for COCCOC(=O)C1=C(C)NC(C)=C(C(=O)OC/C=C/c2ccccc2)C1c1cccc([N+](=O)[O-])c1 (stereo not shown) tested on NSCLC A549 lung cancer cells.
**A:** 41

Origin of values: patent US20200129492A1
